system: 324938-238-R-J1-PDC complex spheroids viability; assay: Anticancer human tumor 324938-238-R-J1-PDC patient-derived bladder carcinoma cell line growth inhibition [CLK]; conditions: second compound 3.16 µM; first compound 0.0949 µM; active = viability on the fitted dose curve at most 10% of control; inactive = the rest
Outcomes: 1 = active, -1 = inactive

COMPOUND	GROUP LABEL
CC(C)CC(NC(=O)C(Cc1ccccc1)NC(=O)c1cnccn1)B(O)O (stereo unspecified) + CN1CCN(c2cc(C(=O)Nc3cc4cc(-c5cnn(C)c5)ccc4cn3)ccn2)CC1	1
C=CC(=O)Nc1cc(Nc2nccc(-c3cn(C)c4ccccc34)n2)c(OC)cc1N(C)CCN(C)C + CNC(=O)c1ccc(Nc2nc(OC3CCCC3)c3c(-c4ccc5nc(C)oc5c4)c[nH]c3n2)c(OC)c1	-1
CC(C)CC(NC(=O)C(Cc1ccccc1)NC(=O)c1cnccn1)B(O)O (stereo unspecified) + CNC(=O)c1ccc(Nc2nc(OC3CCCC3)c3c(-c4ccc5nc(C)oc5c4)c[nH]c3n2)c(OC)c1	1
NC(=O)C(=Cn1cnc(-c2cc(C(F)(F)F)cc(C(F)(F)F)c2)n1)c1cncnc1 + CNC(=O)c1ccc(Nc2nc(OC3CCCC3)c3c(-c4ccc5nc(C)oc5c4)c[nH]c3n2)c(OC)c1	1
NC(=O)C(=Cn1cnc(-c2cc(C(F)(F)F)cc(C(F)(F)F)c2)n1)c1cncnc1 + CN1CCN(c2cc(C(=O)Nc3cc4cc(-c5cnn(C)c5)ccc4cn3)ccn2)CC1	1
C=CC(=O)Nc1cc(Nc2nccc(-c3cn(C)c4ccccc34)n2)c(OC)cc1N(C)CCN(C)C + CN1CCN(c2cc(C(=O)Nc3cc4cc(-c5cnn(C)c5)ccc4cn3)ccn2)CC1	1

* * *

system: 324938-238-R-J1-PDC complex spheroids viability; experiment: Anticancer human tumor 324938-238-R-J1-PDC cell line growth inhibition [CLK]; conditions: second compound 0.0316 µM; first compound 0.00316 µM; stronger effect = lower value;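 also: viability read after seven days of drug exposure; 100% = DMSO vehicle control wells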

MOLECULE	viability, T/C / %
Cn1ncnc1[C@H]1c2n[nH]c(=O)c3cc(F)cc(c23)N[C@@H]1c1ccc(F)cc1 + CN1CCN(c2cc(C(=O)Nc3cc4cc(-c5cnn(C)c5)ccc4cn3)ccn2)CC1	58.2
COc1c(OCCCN2CCOCC2)ccc2c3n(c(=NC(=O)c4cnc(N)nc4)nc12)CCN3 + CNC(=O)c1ccc(Nc2nc(OC3CCCC3)c3c(-c4ccc5nc(C)oc5c4)c[nH]c3n2)c(OC)c1	72.8
CCN1CCN(Cc2ccc(Nc3ncc(F)c(-c4cc(F)c5nc(C)n(C(C)C)c5c4)n3)nc2)CC1 + CN1CCN(c2cc(C(=O)Nc3cc4cc(-c5cnn(C)c5)ccc4cn3)ccn2)CC1	65
CCN1CCN(Cc2ccc(Nc3ncc(F)c(-c4cc(F)c5nc(C)n(C(C)C)c5c4)n3)nc2)CC1 + CNC(=O)c1ccc(Nc2nc(OC3CCCC3)c3c(-c4ccc5nc(C)oc5c4)c[nH]c3n2)c(OC)c1	75.9
CCc1c2c(nc3ccc(O)cc13)-c1cc3c(c(=O)n1C2)COC(=O)[C@]3(O)CC + CN1CCN(c2cc(C(=O)Nc3cc4cc(-c5cnn(C)c5)ccc4cn3)ccn2)CC1	14.9

* * *

tested on: 324938-238-R-J1-PDC complex spheroids viability; experiment: Anticancer human tumor 324938-238-R-J1-PDC cell line growth inhibition [CLK]; conditions: second compound 1 µM; first compound 0.01 µM; stronger effect = lower value;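 also: viability read after seven days of drug exposure; 100% = DMSO vehicle control wells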
viability, T/C: recorded values
OBSERVABLE: viability, T/C (%)

> print(dat)
                                   molecule                            assayed.system  units.label  observed.value
1  COc1c(OCCCN2CCOCC2)ccc2c3n(c(=NC(=O)c4cnc(N)nc4)nc12)CCN3 + CN1CCN(c2cc(C(=O)Nc3cc4cc(-c5cnn(C)c5)ccc4cn3)ccn2)CC1  324938-238-R-J1-PDC complex spheroids viability            %            2.19
2  CCc1c2c(nc3ccc(O)cc13)-c1cc3c(c(=O)n1C2)COC(=O)[C@]3(O)CC + CN1CCN(c2cc(C(=O)Nc3cc4cc(-c5cnn(C)c5)ccc4cn3)ccn2)CC1  324938-238-R-J1-PDC complex spheroids viability            %            0.28
3  Cn1ncnc1[C@H]1c2n[nH]c(=O)c3cc(F)cc(c23)N[C@@H]1c1ccc(F)cc1 + CN1CCN(c2cc(C(=O)Nc3cc4cc(-c5cnn(C)c5)ccc4cn3)ccn2)CC1  324938-238-R-J1-PDC complex spheroids viability            %            0.51

* * *

viability, T/C: recorded values
tested on: 324938-238-R-J1-PDC complex spheroids viability; assay: Anticancer human tumor 324938-238-R-J1-PDC cell line growth inhibition [CLK]; conditions: second compound 0.1 µM; first compound 10 µM; stronger effect = lower value;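 also: viability read after seven days of drug exposure; 100% = DMSO vehicle control wells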

COMPOUND	ASSAYED SYSTEM	UNITS LABEL	viability, T/C
COC1C=CCC(C)C(C)S(=O)(=O)NC(=O)c2ccc3c(c2)N(CC2CCC21)CC1(CCCc2cc(Cl)ccc21)CO3 (centres undefined) + CN1CCN(c2cc(C(=O)Nc3cc4cc(-c5cnn(C)c5)ccc4cn3)ccn2)CC1	324938-238-R-J1-PDC complex spheroids viability	%	13.9
CC1(C)CCC(CN2CCN(c3ccc(C(=O)NS(=O)(=O)c4ccc(NCC5CCOCC5)c([N+](=O)[O-])c4)c(Oc4cnc5[nH]ccc5c4)c3)CC2)=C(c2ccc(Cl)cc2)C1 + CNC(=O)c1ccc(Nc2nc(OC3CCCC3)c3c(-c4ccc5nc(C)oc5c4)c[nH]c3n2)c(OC)c1	324938-238-R-J1-PDC complex spheroids viability	%	4.63
CCCS(=O)(=O)Nc1ccc(F)c(C(=O)c2c[nH]c3ncc(-c4ccc(Cl)cc4)cc23)c1F + CN1CCN(c2cc(C(=O)Nc3cc4cc(-c5cnn(C)c5)ccc4cn3)ccn2)CC1	324938-238-R-J1-PDC complex spheroids viability	%	39.1
Nc1ccccc1NC(=O)c1ccc(CNC(=O)OCc2cccnc2)cc1 + CNC(=O)c1ccc(Nc2nc(OC3CCCC3)c3c(-c4ccc5nc(C)oc5c4)c[nH]c3n2)c(OC)c1	324938-238-R-J1-PDC complex spheroids viability	%	4.92
CC(=O)O[C@H]1C(=O)[C@@]2(C)[C@H]([C@H](OC(=O)c3ccccc3)[C@]3(O)C[C@H](OC(=O)[C@H](O)[C@@H](NC(=O)c4ccccc4)c4ccccc4)C(C)=C1C3(C)C)[C@]1(OC(C)=O)CO[C@@H]1C[C@@H]2O + CN1CCN(c2cc(C(=O)Nc3cc4cc(-c5cnn(C)c5)ccc4cn3)ccn2)CC1	324938-238-R-J1-PDC complex spheroids viability	%	16.9
CC1(C)CCC(CN2CCN(c3ccc(C(=O)NS(=O)(=O)c4ccc(NCC5CCOCC5)c([N+](=O)[O-])c4)c(Oc4cnc5[nH]ccc5c4)c3)CC2)=C(c2ccc(Cl)cc2)C1 + CN1CCN(c2cc(C(=O)Nc3cc4cc(-c5cnn(C)c5)ccc4cn3)ccn2)CC1	324938-238-R-J1-PDC complex spheroids viability	%	26.4
CC1COCCN1c1cc(C2(S(C)(=N)=O)CC2)nc(-c2ccnc3[nH]ccc23)n1 (centres undefined) + CNC(=O)c1ccc(Nc2nc(OC3CCCC3)c3c(-c4ccc5nc(C)oc5c4)c[nH]c3n2)c(OC)c1	324938-238-R-J1-PDC complex spheroids viability	%	17.1
O=C(c1cc(Cc2n[nH]c(=O)c3ccccc23)ccc1F)N1CCN(C(=O)C2CC2)CC1 + CNC(=O)c1ccc(Nc2nc(OC3CCCC3)c3c(-c4ccc5nc(C)oc5c4)c[nH]c3n2)c(OC)c1	324938-238-R-J1-PDC complex spheroids viability	%	20.8
CC(CO)NC(=O)c1cc(-c2ccc(Cl)cc2)nn(-c2cnn(C)c2)c1=O (centres undefined) + CNC(=O)c1ccc(Nc2nc(OC3CCCC3)c3c(-c4ccc5nc(C)oc5c4)c[nH]c3n2)c(OC)c1	324938-238-R-J1-PDC complex spheroids viability	%	28
Nc1ccn(C2OC(CO)C(O)C2(F)F)c(=O)n1 (centres undefined) + CN1CCN(c2cc(C(=O)Nc3cc4cc(-c5cnn(C)c5)ccc4cn3)ccn2)CC1	324938-238-R-J1-PDC complex spheroids viability	%	4.89
CC(Nc1ccc2c(c1)OCCn1cc(N3C(=O)OCC3C(F)F)nc1-2)C(N)=O (centres undefined) + CN1CCN(c2cc(C(=O)Nc3cc4cc(-c5cnn(C)c5)ccc4cn3)ccn2)CC1	324938-238-R-J1-PDC complex spheroids viability	%	15.5
COc1ccc([C@@H](O)c2cc(-c3ncnc4cc(N5CCOCC5)ccc34)c(F)cc2Cl)nn1 + CNC(=O)c1ccc(Nc2nc(OC3CCCC3)c3c(-c4ccc5nc(C)oc5c4)c[nH]c3n2)c(OC)c1	324938-238-R-J1-PDC complex spheroids viability	%	22.7
O=C(c1cc(Cc2n[nH]c(=O)c3ccccc23)ccc1F)N1CCN(C(=O)C2CC2)CC1 + CN1CCN(c2cc(C(=O)Nc3cc4cc(-c5cnn(C)c5)ccc4cn3)ccn2)CC1	324938-238-R-J1-PDC complex spheroids viability	%	19.4
CC(=O)O[C@H]1C(=O)[C@@]2(C)[C@H]([C@H](OC(=O)c3ccccc3)[C@]3(O)C[C@H](OC(=O)[C@H](O)[C@@H](NC(=O)c4ccccc4)c4ccccc4)C(C)=C1C3(C)C)[C@]1(OC(C)=O)CO[C@@H]1C[C@@H]2O + CNC(=O)c1ccc(Nc2nc(OC3CCCC3)c3c(-c4ccc5nc(C)oc5c4)c[nH]c3n2)c(OC)c1	324938-238-R-J1-PDC complex spheroids viability	%	35.1
